target: mutant MGL (Homo sapiens, UniProt Q99685, L169S/L176S); experiment: MGL ThermoFluor assay - mutant; format: binding; settings: ThermoFluor thermal stability binding assay, read-out: MGL mutant ThermoFluor Kd
Metric: log10 Kd (log10 of the value in nM)
// units: nM (pre-log); metric: Kd; scale: log10

Here's what some known entries look like.
>  <Given Smiles>
O=C(c1ccccc1)N1CCN(C2CN(C(=O)c3cc4c(C(F)(F)F)cccc4s3)C2)CC1

>  <Metric>
log10 Kd

>  <Assay Result>
2.64

$$$$
>  <Given Smiles>
O=C(c1ccc(-n2ccc(C(F)(F)F)n2)cc1)N1CC(N2CCN(C(=O)c3cscn3)CC2)C1

>  <Metric>
log10 Kd

>  <Assay Result>
3.40

$$$$
>  <Given Smiles>
O=C(c1ccccc1)N1CCN(C2CN(C(=O)c3ccc(OCc4ccccn4)c(Cl)c3)C2)CC1

>  <Metric>
log10 Kd

>  <Assay Result>
2.97

$$$$
>  <Given Smiles>
O=C(c1ccc2c(c1)CCCN2S(=O)(=O)c1cccc(C(F)(F)F)c1)N1CC(N2CCN(C(=O)c3nccs3)CC2)C1

>  <Metric>
log10 Kd

>  <Assay Result>
1.93

$$$$
>  <Given Smiles>
O=C(c1ccccc1)N1CCN(C2CN(C(=O)c3ccc(OCc4ccc(Cl)s4)cc3)C2)CC1

>  <Metric>
log10 Kd

>  <Assay Result>
1.90

$$$$
>  <Given Smiles>
O=C(c1nccs1)N1CCN(C2CN(C(=O)c3cccc4oc(-c5ccccc5)nc34)C2)CC1

>  <Metric>
log10 Kd

>  <Assay Result>
0.90

$$$$

Now look at this entry.
Provide the documented log10 Kd with mutant MGL (Homo sapiens, UniProt Q99685, L169S/L176S) as the system for O=C(c1ccc(OCc2ccc(Cl)s2)cc1)N1CC(N2CCN(C(=O)c3cscn3)CC2)C1 2.01

====

Biological target: purified wild type MGL (wt-MGLL 6H-11-313) (Homo sapiens, UniProt Q99685)
Sequence (Q99685 1-303): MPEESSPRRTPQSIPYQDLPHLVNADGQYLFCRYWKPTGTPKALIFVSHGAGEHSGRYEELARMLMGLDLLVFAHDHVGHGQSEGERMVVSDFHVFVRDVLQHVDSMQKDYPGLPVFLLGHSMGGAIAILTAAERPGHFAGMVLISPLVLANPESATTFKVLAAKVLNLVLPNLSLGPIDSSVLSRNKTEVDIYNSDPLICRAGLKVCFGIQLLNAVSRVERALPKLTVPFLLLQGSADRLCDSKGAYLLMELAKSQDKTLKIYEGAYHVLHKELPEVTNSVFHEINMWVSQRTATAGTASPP
Recorded IC50 values for a group of compounds are listed next.

>  <Compound>
O=C(c1ccccc1)N1CCN(C2CN(C(=O)c3ccc(CS(=O)(=O)c4cccc(C(F)(F)F)c4)cc3)C2)CC1

>  <System Tested>
purified wild type MGL (wt-MGLL 6H-11-313) (Homo sapiens, UniProt Q99685)

>  <IC50>
5.4 µM

$$$$
>  <Compound>
O=C(c1ccc(-c2ccc(C(F)(F)F)s2)cc1)N1CCN(C2CN(C(=O)c3nccs3)C2)CC1

>  <System Tested>
purified wild type MGL (wt-MGLL 6H-11-313) (Homo sapiens, UniProt Q99685)

>  <IC50>
0.046 µM

$$$$

Now look at this entry.
Any idea what its IC50 is? The compound is Cc1nn(-c2ccc(F)cc2)c2ncc(C(=O)N3CC(N4CCN(C(=O)c5nccs5)CC4)C3)cc12 0.153 µM
